Recorded MCR3 EC50 (nM); cAMP production, LANCE cAMP assay, CHO-MCR3 cells, cell pool B by entry
# system-name: MCR3 (human, UniProt P41968 1-323)
# Sequence (P41968 whole entry): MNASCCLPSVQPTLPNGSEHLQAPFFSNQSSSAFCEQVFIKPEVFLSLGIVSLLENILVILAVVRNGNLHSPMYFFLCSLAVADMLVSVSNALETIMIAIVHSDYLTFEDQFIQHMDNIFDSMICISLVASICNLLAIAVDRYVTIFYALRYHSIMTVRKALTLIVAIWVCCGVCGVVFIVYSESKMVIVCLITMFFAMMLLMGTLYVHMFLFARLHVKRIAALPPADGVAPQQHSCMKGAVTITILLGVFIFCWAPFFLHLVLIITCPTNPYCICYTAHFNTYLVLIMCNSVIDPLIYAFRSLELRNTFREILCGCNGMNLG
# test: cell-based or functional assay
Square brackets hold non-standard residues; d marks the D form. Ends that are not written are not given here. Nle = CCCC[C@H](N)C(=O)O

// known answers, use as guide
Query :: What value of MCR3 EC50 (nM); cAMP production, LANCE cAMP assay, CHO-MCR3 cells, cell pool B has been recorded for this entry: ACTH1-24-linker-Furin site-linker-NDP-α-MSH (ends and bridges not checked) peptide: SYSMEHFRWGKPVGKKRRPVKVYPGGGGSRRKRGGGGSSYS[Nle]EH[dF]RWGKPV
Result :: 0.453 nM

Query :: # query: MCR3 EC50 (nM); cAMP production, LANCE cAMP assay, CHO-MCR3 cells, cell pool B of entry ACTH1-24-linker-MMP (broad) site-linker-NDP-α-MSH (ends and bridges not checked) peptide: SYSMEHFRWGKPVGKKRRPVKVYPGGGGSPAGLVAGGGGSSYS[Nle]EH[dF]RWGKPV
Result :: 1 nM

Query :: Form field: reported MCR3 EC50 (nM); cAMP production, LANCE cAMP assay, CHO-MCR3 cells, cell pool B of ACTH1-24-natural C-terminal spacer-NDP-α-MSH (ends and bridges not checked) peptide: SYSMEHFRWGKPVGKKRRPVKVYPELTGQRLREGDGPDGPADDGAGASYS[Nle]EH[dF]RWGKPV
Result :: 1.66 nM

Query :: Could you share which MCR3 EC50 (nM); cAMP production, LANCE cAMP assay, CHO-MCR3 cells, cell pool B value was measured for NDP-α-MSH-linker-MMP (broad) site-linker-ACTH1-24 (peptide) peptide: Ac-SYS[Nle]EH[dF]RWGKPVGGGGSPAGLVAGGGGSSYSMEHFRWGKPVGKKRRPVKVYP ?
Result :: 1.5 nM

Query :: Quick one: MCR3 EC50 (nM); cAMP production, LANCE cAMP assay, CHO-MCR3 cells, cell pool B for XEHXRWAGASYSMEHFRWGKPVGKKRRPVKVYP (Nle, dPhe and β-Ala residues as printed: Nle-EH-dPhe-RW-β-Ala-G-β-Ala-SYSMEHFRWGKPVGKKRRPVKVYP) [NDP-ACTH4-9-βAla-G-βAla-ACTH1-24] ?
Result :: 5.5 nM

Query :: Quick check: MCR3 EC50 (nM); cAMP production, LANCE cAMP assay, CHO-MCR3 cells, cell pool B of XEHXRWSYSMEHFRWGKPVGKKRRPVKVYP (Nle at position 1 and dPhe at position 4 as printed: Nle-EH-dPhe-RWSYSMEHFRWGKPVGKKRRPVKVYP) [NDP-ACTH4-9-ACTH1-24] ?
Result :: 6.8 nM

Query :: Could you share which MCR3 EC50 (nM); cAMP production, LANCE cAMP assay, CHO-MCR3 cells, cell pool B value was measured for SYSMEHFRWGKPVGKKRRPVKVYPGGGGSRRKRSYS[Nle]EH[dF]RWGKPV [ACTH1-24-proconvertase-NDP-α-MSH] ?
Result :: 0.51 nM

Query :: Would you mind telling me what MCR3 EC50 (nM); cAMP production, LANCE cAMP assay, CHO-MCR3 cells, cell pool B value was observed for SYSMEHFRWGKPVGKKRRPVKVYPNGAEDESAEAFPLEFKR [ACTH1-39] ?
Result :: 18 nM

Query :: Item ACTH1-24-natural C-terminal spacer-α-MSH (peptide) peptide: SYSMEHFRWGKPVGKKRRPVKVYPELTGQRLREGDGPDGPADDGAGASYSMEHFRWGKPV has what recorded MCR3 EC50 (nM); cAMP production, LANCE cAMP assay, CHO-MCR3 cells, cell pool B?
Result :: 22 nM

Query :: // returns reported MCR3 EC50 (nM); cAMP production, LANCE cAMP assay, CHO-MCR3 cells, cell pool B for input ACTH1-24-natural N-terminal spacer-NDP-α-MSH (ends and bridges not checked) peptide: SYSMEHFRWGKPVGKKRRPVKVYPPLPEGGPEPRSDGAKPGPREGKRSYS[Nle]EH[dF]RWGKPV
Result :: 0.62 nM

Continuing:
Query :: Fill in: MCR3 EC50 (nM); cAMP production, LANCE cAMP assay, CHO-MCR3 cells, cell pool B of YVMGHFRWDRFGRRNSSSSGSSGAGQKR [γ-MSH with linker] is ___
Result :: 11 nM

Query :: Any idea what MCR3 EC50 (nM); cAMP production, LANCE cAMP assay, CHO-MCR3 cells, cell pool B was measured for SYSMEHFRWGKPVGKKRRPVKVYPGGGGSRRKRSYSMEHFRWGKPV [ACTH1-24-proconvertase-α-MSH] ?
Result :: 6.1 nM

Query :: Quick one: MCR3 EC50 (nM); cAMP production, LANCE cAMP assay, CHO-MCR3 cells, cell pool B for ACTH1-24-linker-MMP site-linker-NDP-α-MSH (ends and bridges not checked) peptide: SYSMEHFRWGKPVGKKRRPVKVYPGGGGSPLGLWAGGGGSSYS[Nle]EH[dF]RWGKPV ?
Result :: 4.7 nM

Taken from patent US20190054150A1.
